Molecular target: Gonadotropin-releasing hormone receptor (Homo sapiens, UniProt P30968)
Sequence (P30968 whole entry): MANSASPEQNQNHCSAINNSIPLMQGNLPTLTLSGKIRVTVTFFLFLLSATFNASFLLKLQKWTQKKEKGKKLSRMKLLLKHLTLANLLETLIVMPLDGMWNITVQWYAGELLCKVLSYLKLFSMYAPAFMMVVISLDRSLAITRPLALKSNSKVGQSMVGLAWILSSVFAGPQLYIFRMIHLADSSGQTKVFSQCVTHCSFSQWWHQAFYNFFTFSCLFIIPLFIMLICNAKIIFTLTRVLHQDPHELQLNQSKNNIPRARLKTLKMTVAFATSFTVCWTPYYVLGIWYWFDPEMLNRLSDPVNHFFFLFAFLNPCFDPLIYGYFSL
Assay: Ability to inhibit [125I-Tyr5,DLeu6,NMeLeu7,Pro9-NEt]GnRH agonist binding to the cloned human Gonadotropin-releasing hormone receptor was evaluated

{"mol": "CCOC(=O)c1cn(Cc2ccccc2F)c2nc(-c3ccc(OC)cc3)c(CN(C)CCc3ccccn3)n2c1=O", "tested-target": "Gonadotropin-releasing hormone receptor (Homo sapiens, UniProt P30968)", "uom": "nM", "Ki": 230}
{"mol": "CCCC(=O)Nc1ccc(-c2nc3n(Cc4ccccc4F)cc(C(=O)OCC)c(=O)n3c2CN(C)CCc2ccccn2)cc1", "tested-target": "Gonadotropin-releasing hormone receptor (Homo sapiens, UniProt P30968)", "uom": "nM", "Ki": 12}
{"mol": "CCCC(=O)Nc1ccc(-c2cn3c(=O)c(C(=O)OCC)cn(Cc4ccccc4F)c3n2)cc1", "tested-target": "Gonadotropin-releasing hormone receptor (Homo sapiens, UniProt P30968)", "uom": "nM", "Ki": 30000}
